# Test system: SR
# Protocol Text: NCI tumour cell line growth inhibition, 48 h
Activity calls are given as the source filed them. Rule as the data show it: active = GI50 up to about 1.1 µM and inactive = higher.
Measured GI50 by item

INSERT INTO assay_data (compound, experimental_target, measurement) VALUES
  ('CCN(CC)c1ccc(/C=C(\C#N)c2nc(N)nc(N3N=C(C)CC3(C)C)n2)cc1', 'SR', '12.2 µM (inactive)'),
  ('COC(=O)[C@](NC(=O)OCc1ccccc1)([C@@H](C)Sc1ccc(C)cc1)C(F)(F)F', 'SR', '31.1 µM (inactive)');

Query: GI50; subject: C=CCC1(OC(C)=O)C2OC(=O)C1(O)OCC2O (centres undefined)
> 100 µM (inactive)

# iterate: CN1CCN(CCCCN2c3ccccc3Sc3cc(N=[N+]=[N-])ccc32)CC1
5.5 µM (inactive)

----------
Listed here: items and their measured GI50.
# Test system: A498
# Protocol Text: NCI tumour cell line growth inhibition, 48 h
The source made the active and inactive calls. Cut-off read from the data, not from the text of the source: active = GI50 up to about 1.1 µM and inactive = higher.

INSERT INTO measurements (molecule, measurement) VALUES
  ('CN/N=C(/c1nc2ccc([N+](=O)[O-])cc2nc1O)C(O)c1ccc(C(O)/C(=N\NC)c2nc3ccc([N+](=O)[O-])cc3nc2O)cc1 (stereo not given)', '> 100 µM (inactive)'),
  ('O=C(Nc1ccccc1-c1nn(CN2CCNCC2)c(=S)n(CN2CCNCC2)c1=O)C(F)(F)F', '18.2 µM (inactive)'),
  ('C(=C\c1nccs1)/c1cccc(/C=C/c2nccs2)n1', '> 50 µM (inactive)'),
  ('COc1ccc(-c2cc(-c3ccccc3)nc(N)n2)c(O)c1', '> 100 µM (inactive)'),
  ('CC(C)C(Br)CCC1=CCC(Br)(Br)C1 (stereo not given)', '18.8 µM (inactive)'),
  ('NNC(=O)CSc1nc2ccccc2c(=O)n1N', '> 100 µM (inactive)'),
  ('CC12O[Te]34OC1(C)C(C)(O3)C2(C)O4', '> 8.75 µM (inactive)'),
  ('CC1=C(C(=O)Nc2ccccc2)C(c2ccccc2Cl)C(C(=O)Nc2ccccc2)=C(C)N1', '27.8 µM (inactive)'),
  ('C/C(=N\NS(=O)(=O)c1ccc(C)cc1)c1c(O)cc(C)oc1=O', '> 100 µM (inactive)');

Attention now turns to another entry.
Name the recorded GI50 for [N-]=[N+]=Nc1c([N+](=O)[O-])c(Cl)nc2ccccc12 .
13.7 µM (inactive)

----------
# Test system: SK-MEL-28
# Protocol Text: NCI tumour cell line growth inhibition, 48 h
Calls of active or inactive are those of the source. No stated cut-off is given here; in the data, active = GI50 up to about 1.1 µM and inactive = higher.
A collection of compounds and their measured GI50

Please review the following examples before continuing.
INSERT INTO results (compound, experimental_target, measurement) VALUES
  ('CCOC(=O)N1c2c(c3ccccc3n2C(=O)OCC)C(=O)C(OC)N1C(=O)OCC (stereo unspecified)', 'SK-MEL-28', '24.2 µM (inactive)'),
  ('COC1CCON1C(=O)c1ccccc1 (stereo unspecified)', 'SK-MEL-28', '> 10 µM (inactive)'),
  ('O=S(=O)(CC(Cl)c1ccccc1)c1nc2ccccc2s1 (stereo unspecified)', 'SK-MEL-28', '15.7 µM (inactive)'),
  ('NC(=O)NC(=O)c1cccc(NC(=O)CCl)c1', 'SK-MEL-28', '7 µM (inactive)'),
  ('COC(=O)N/N=C(\C)c1sc(-c2nc(C)c(/C(C)=N/NC(=O)OC)s2)nc1C', 'SK-MEL-28', '> 100 µM (inactive)'),
  ('COC(=O)[C@@H]1C[C@H]([Se]c2ccccc2)CN1S(=O)(=O)c1ccc(C)cc1', 'SK-MEL-28', '76.2 µM (inactive)'),
  ('CCN(CC)CSc1nc2ccccc2o1', 'SK-MEL-28', '> 100 µM (inactive)'),
  ('O=C([O-])Cc1ccccc1.[Na+] [SODIUM PHENYLACETATE]', 'SK-MEL-28', '800 µM (inactive)'),
  ('CC(C)(C)C1CCC(O)(c2ccccc2)CC1 (stereo unspecified)', 'SK-MEL-28', '> 100 µM (inactive)'),
  ('COc1cc(O)c2c(=O)c(OC)c(-c3ccc(OC)c(O)c3)oc2c1', 'SK-MEL-28', '> 100 µM (inactive)');

Alright, here's another compound for you.
So what does the record say about GI50 for CC(=O)Oc1cc(OC(C)=O)c2cc3c(cc2c1OC(C)=O)C(=O)C1(CCCC1)C3=O ?
15.6 µM (inactive)
